Provide the reported HEK-Blue activity, +100 nM BP, DF-100,000 of each item.
Target: T1, interleukin 18 binding protein (IL-18BP) (UniProt O95998 31-194); also: unit not given here
T1 sequence (looked up): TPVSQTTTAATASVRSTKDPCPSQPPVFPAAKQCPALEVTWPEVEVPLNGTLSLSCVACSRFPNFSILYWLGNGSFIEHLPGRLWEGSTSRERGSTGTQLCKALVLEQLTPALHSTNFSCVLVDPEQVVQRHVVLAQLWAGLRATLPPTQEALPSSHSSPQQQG
Assay: cell-based or functional assay
Numbers only.

>  <binder>
IL-18 variant K53Y, S55G, Q56H (ligand) YFGKLESKLSVIRNLNDQVLFIDQGNRPLFEDMTDSDMRDNAPRTIFIISMYYDGHPRGMAVTISVKSEKISTLSSENKIISFKEMNPPDNIKDTKSDIIFFQRSVPGHDNKMQFESSSYEGYFLASEKERDLFKLILKKEDELGDRSIMFTVQNED

>  <val>
0.21

$$$$

Here are 6 binders. What values of HEK-Blue activity, +100 nM BP, DF-100,000 were reported for them?
1. IL-18 variant K53Y, S55Y, Q56H (ligand) YFGKLESKLSVIRNLNDQVLFIDQGNRPLFEDMTDSDMRDNAPRTIFIISMYYDYHPRGMAVTISVKSEKISTLSSENKIISFKEMNPPDNIKDTKSDIIFFQRSVPGHDNKMQFESSSYEGYFLASEKERDLFKLILKKEDELGDRSIMFTVQNED
2. IL-18 variant K53H, S55Y, Q56H (ligand) YFGKLESKLSVIRNLNDQVLFIDQGNRPLFEDMTDSDMRDNAPRTIFIISMYHDYHPRGMAVTISVKSEKISTLSSENKIISFKEMNPPDNIKDTKSDIIFFQRSVPGHDNKMQFESSSYEGYFLASEKERDLFKLILKKEDELGDRSIMFTVQNED
3. IL-18 variant K53D, S55E (ligand) YFGKLESKLSVIRNLNDQVLFIDQGNRPLFEDMTDSDMRDNAPRTIFIISMYDDEQPRGMAVTISVKSEKISTLSSENKIISFKEMNPPDNIKDTKSDIIFFQRSVPGHDNKMQFESSSYEGYFLASEKERDLFKLILKKEDELGDRSIMFTVQNED
4. IL-18 variant S36W, D37E, D40F, N41I, K53D, S55N (ligand) YFGKLESKLSVIRNLNDQVLFIDQGNRPLFEDMTDWEMRFIAPRTIFIISMYDDNQPRGMAVTISVKSEKISTLSSENKIISFKEMNPPDNIKDTKSDIIFFQRSVPGHDNKMQFESSSYEGYFLASEKERDLFKLILKKEDELGDRSIMFTVQNED
5. IL-18 variant K53N, S55A, R104N, P107A, H109Y (ligand) YFGKLESKLSVIRNLNDQVLFIDQGNRPLFEDMTDSDMRDNAPRTIFIISMYNDAQPRGMAVTISVKSEKISTLSSENKIISFKEMNPPDNIKDTKSDIIFFQNSVAGYDNKMQFESSSYEGYFLASEKERDLFKLILKKEDELGDRSIMFTVQNED
6. IL-18 variant K53H, S55H, N87D, H109I (ligand) YFGKLESKLSVIRNLNDQVLFIDQGNRPLFEDMTDSDMRDNAPRTIFIISMYHDHQPRGMAVTISVKSEKISTLSSENKIISFKEMDPPDNIKDTKSDIIFFQRSVPGIDNKMQFESSSYEGYFLASEKERDLFKLILKKEDELGDRSIMFTVQNED

## Output
0.2
0.09
0.09
0.13
0.12
0.1
